- run description: cells
- condition set: Homo sapiens, Leukemia cell, 72 h
- Description: Cytotoxicity against human primary leukemia cells isolated from acute myeloid leukemia patient expressing FLT3-ITD mutation assessed as cell viability after 72 hrs by luciferase assay
Please go through the items and note down their pIC50.
Numbers only, as −log10 of the molar value.

COc1cc2c(N3CCN(C(=O)Nc4ccc(OC(C)C)cc4)CC3)ncnc2cc1OCCCN1CCCCC1	6.54
Nc1nc(Nc2ccc(C(=O)NCCN3CCOCC3)cc2)nn1-c1ccccn1	7.52
Nc1nc(Nc2ccc([C@H]3CC[C@H](N4CCOCC4)CC3)cc2)nn1-c1ccccn1	7.92
COc1ccc(N2CCOCC2)cc1Nc1nc(N)n(-c2ccccn2)n1	5.96

Pending compound:
pIC50 lookup needed for Nc1nc(Nc2ccc(N3CCOCC3)cc2)nn1-c1ccccn1 , thanks. 7.52
